# Tested on: CXCR4-expressing Chem_1 cells
# run.description: Determination of internalization, dual tracer with 125I-Fc-131
# Format: cell-based
# test.parameters: 90 min; of total cellular activity
# Description: CXCR4-expressing Chem_1 cells were grown in DMEM-F12 medium supplemented with 10 vol % FBS, 1 vol % NEA, 1 vol % PenStrep and 1 vol % HEPES (1.00 M). Cells were maintained in a 5% CO2 atmosphere at 37° C. For in vitro experiments, cells were harvested by removal of the medium and incubation of the cells with trypsine/EDTA (0.05%/0.02%; w/v) for 30 in at 37° C. […]
Positions of bridges follow the written chain, without caps; N, C: chain ends. Non-standard residues stand in square brackets, D forms with d. Residues, ends and D or L forms follow the SMILES beside them. Groups on a side chain read outwards from the residue. Chains are numbered I, II in the order given. *: point of attachment. X8 = NCCNCC(CNCCN)C(=O)NC[C@@H](NC(=O)CCC(NC(=O)N[C@H](CCC(=O)O)C(=O)O)C(=O)O)C(=O)*; 2Nal = N[C@@H](Cc1ccc2ccccc2c1)C(=O)O; dNMeOrn = CN[C@H](CCCN)C(=O)O; HYNIC = NNc1ccc(C(=O)*)cn1; Mercaptoacetyl = O=C(CS)*; 4Abz = Nc1ccc(C(=O)O)cc1; dDap = NC[C@@H](N)C(=O)O
Below, each of the compounds is paired with its reported Internalized [%] value.
measurement.type: Internalized [%] (%)

{"columns": ["compound", "result.unit", "result.value"],
 "data": [
  ["C[C@@H](NC(=O)[C@@H](CCCNC(=N)N)NC(=O)[C@@H](CN)NC(=O)c1ccc(NN)nc1)C(=O)Nc1ccc(C(=O)NCCC[C@@H]2C(=O)N[C@@H](CCCNC(=N)N)C(=O)N[C@@H](Cc3ccc4ccccc4c3)C(=O)NCC(=O)N[C@H](Cc3ccc(O)cc3)C(=O)N2C)cc1 [Tc-CXCR4-13] (cyclo([dY][dNMeOrn]([4Abz-dA-dR-dDap-HYNIC])R[2Nal]G))", "%", 25.5],
  ["C[C@@H](NC(=O)[C@@H](CCCNC(=N)N)NC(=O)[C@@H](CN)NC(=O)[C@@H](CO)NC(=O)[C@@H](CO)NC(=O)[C@@H](CO)NC(=O)CS)C(=O)Nc1ccc(C(=O)NCCC[C@@H]2C(=O)N[C@@H](CCCNC(=N)N)C(=O)N[C@@H](Cc3ccc4ccccc4c3)C(=O)NCC(=O)N[C@H](Cc3ccc(O)cc3)C(=O)N2C)cc1 [Tc-CXCR4-6] (I: Mercaptoacetyl-[dS][dS][dS][dDap][dR][dA][4Abz] / II: cyclo([dY][dNMeOrn]R[2Nal]G); amide I:C-II:2)", "%", 27.1],
  ["C[C@@H](NC(=O)[C@@H](CCCNC(=N)N)NC(=O)[C@@H](Cc1c[nH]cn1)NC(=O)[C@@H](CNC(=O)c1ccc([Si](F)(C(C)(C)C)C(C)(C)C)cc1)NC(=O)CC[C@H](C(=O)O)N1CCN(CC(=O)O)CCN(CC(=O)O)CCN(CC(=O)O)CC1)C(=O)Nc1ccc(C(=O)NCCC[C@@H]2C(=O)N[C@@H](CCCNC(=N)N)C(=O)N[C@@H](Cc3ccc4ccccc4c3)C(=O)NCC(=O)N[C@H](Cc3ccc(O)cc3)C(=O)N2C)cc1 [CXCR4-SiFA-2 [Ga]]", "%", 16.5],
  ["C[C@@H](NC(=O)[C@@H](CCCNC(=N)N)NC(=O)[C@@H](CN)NC(=O)CCCCCNC(=O)[C@@H](CNC(=O)CC[C@H](C(=O)O)N1CCN(CC(=O)O)CCN(CC(=O)O)CCN(CC(=O)O)CC1)NC(=O)C[N+](C)(C)Cc1ccc([Si](F)(C(C)(C)C)C(C)(C)C)cc1)C(=O)Nc1ccc(C(=O)NCCC[C@@H]2C(=O)N[C@@H](CCCNC(=N)N)C(=O)N[C@@H](Cc3ccc4ccccc4c3)C(=O)NCC(=O)N[C@H](Cc3ccc(O)cc3)C(=O)N2C)cc1 [CXCR4-SiFA-6 [Ga]]", "%", 48.1],
  ["C[C@@H](NC(=O)[C@@H](CCCNC(=N)N)NC(=O)[C@@H](CN)NC(=O)[C@@H](CNC(=O)C(CNCCN)CNCCN)NC(=O)CCC(NC(=O)N[C@H](CCC(=O)O)C(=O)O)C(=O)O)C(=O)Nc1ccc(C(=O)NCCC[C@@H]2C(=O)N[C@@H](CCCNC(=N)N)C(=O)N[C@@H](Cc3ccc4ccccc4c3)C(=O)NCC(=O)N[C@H](Cc3ccc(O)cc3)C(=O)N2C)cc1 (some centres unmarked) [Tc-CXCR4-15] (cyclo([2Nal]G[dY][dNMeOrn]([4Abz-dA-dR-dDap-X8])R))", "%", 17.9]
]}

----------
# run.description: Octanol/PBS partition coefficient (logD7.4)
# Assay type: physicochemical
# test.parameters: n-octanol/PBS pH 7.4, radiolabeled compound
# Method: The tubes were vortexed at maximum speed for 3 min to ensure equilibrium before centrifugation at 15.000×g for 5 min on a Biofuge 15 from Heraeus Holding GmbH (Osterode, Germany). An aliquot of 100 μL of each fraction was measured in the γ-counter and the log D7.4 calculated as follows: […]
Positions of bridges follow the written chain, without caps; N, C: chain ends. Non-standard residues stand in square brackets, D forms with d. Residues, ends and D or L forms follow the SMILES beside them. Groups on a side chain read outwards from the residue. Chains are numbered I, II in the order given. *: point of attachment. DOTA = O=C(O)CN1CCN(CC(=O)O)CCN(CC(=O)*)CCN(CC(=O)O)CC1; dTyr(3-I) = N[C@H](Cc1ccc(O)c(I)c1)C(=O)O; 2Nal = N[C@@H](Cc1ccc2ccccc2c1)C(=O)O; dCit = NC(=O)NCCC[C@@H](N)C(=O)O; dNMeOrn = CN[C@H](CCCN)C(=O)O; HYNIC = NNc1ccc(C(=O)*)cn1; 4Amb = NCc1ccc(C(=O)O)cc1; Mercaptoacetyl = O=C(CS)*; 4Abz = Nc1ccc(C(=O)O)cc1; dDap = NC[C@@H](N)C(=O)O
measurement.type: logD7.4

{"columns": ["molecule", "result.value"],
 "data": [
  ["C[C@@H](NC(=O)[C@@H](CCCNC(=N)N)NC(=O)[C@@H](Cc1c[nH]cn1)NC(=O)[C@@H](CNC(=O)c1ccc([Si](F)(C(C)(C)C)C(C)(C)C)cc1)NC(=O)CC[C@H](C(=O)O)N1CCN(CC(=O)O)CCN(CC(=O)O)CCN(CC(=O)O)CC1)C(=O)Nc1ccc(C(=O)NCCC[C@@H]2C(=O)N[C@@H](CCCNC(=N)N)C(=O)N[C@@H](Cc3ccc4ccccc4c3)C(=O)NCC(=O)N[C@H](Cc3ccc(O)cc3)C(=O)N2C)cc1 [CXCR4-SiFA-2 [Ga]]", "0.39 ± 0.07 (8)"],
  ["C[C@@H](NC(=O)[C@@H](CCCNC(=N)N)NC(=O)[C@@H](CN)NC(=O)CCCCCNC(=O)[C@@H](CNC(=O)CC[C@H](C(=O)O)N1CCN(CC(=O)O)CCN(CC(=O)O)CCN(CC(=O)O)CC1)NC(=O)C[N+](C)(C)Cc1ccc([Si](F)(C(C)(C)C)C(C)(C)C)cc1)C(=O)Nc1ccc(C(=O)NCCC[C@@H]2C(=O)N[C@@H](CCCNC(=N)N)C(=O)N[C@@H](Cc3ccc4ccccc4c3)C(=O)NCC(=O)N[C@H](Cc3ccc(O)cc3)C(=O)N2C)cc1 [CXCR4-SiFA-6 [Ga]]", "−1.05 ± 0.06 (8)"],
  ["C[C@@H](NC(=O)[C@@H](CCCNC(=N)N)NC(=O)[C@@H](CN)NC(=O)CN1CCN(CC(=O)O)CCN(CC(=O)O)CCN(CC(=O)O)CC1)C(=O)NCc1ccc(C(=O)NCCC[C@@H]2C(=O)N[C@@H](CCCNC(=N)N)C(=O)N[C@@H](Cc3ccc4ccccc4c3)C(=O)NCC(=O)N[C@H](Cc3ccc(O)cc3)C(=O)N2C)cc1 [CXCR4-DOTA-1 [Lu]] (cyclo([dY][dNMeOrn]([4Amb-dA-dR-dDap-DOTA])R[2Nal]G))", "−3.41 ± 0.05 (6)"],
  ["C[C@@H](NC(=O)[C@@H](CCCNC(N)=O)NC(=O)[C@@H](CN)NC(=O)CN1CCN(CC(=O)O)CCN(CC(=O)O)CCN(CC(=O)O)CC1)C(=O)Nc1ccc(C(=O)NCCC[C@@H]2C(=O)N[C@@H](CCCNC(=N)N)C(=O)N[C@@H](Cc3ccc4ccccc4c3)C(=O)NCC(=O)N[C@H](Cc3ccc(O)cc3)C(=O)N2C)cc1 [CXCR4-DOTA-5 [Lu]] (cyclo([dY][dNMeOrn]([4Abz-dA-dCit-dDap-DOTA])R[2Nal]G))", "−3.58 ± 0.08 (8)"],
  ["C[C@@H](NC(=O)[C@@H](CCCNC(=N)N)NC(=O)[C@@H](CN)NC(=O)CN1CCN(CC(=O)O)CCN(CC(=O)O)CCN(CC(=O)O)CC1)C(=O)NCc1ccc(C(=O)NCCC[C@@H]2C(=O)N[C@@H](CCCNC(=N)N)C(=O)N[C@@H](Cc3ccc4ccccc4c3)C(=O)NCC(=O)N[C@H](Cc3ccc(O)c(I)c3)C(=O)N2C)cc1 [CXCR4-DOTA-2 [Lu]] (cyclo([dTyr(3-I)][dNMeOrn]([4Amb-dA-dR-dDap-DOTA])R[2Nal]G))", "−2.20 ± 0.06 (8)"],
  ["C[C@@H](NC(=O)[C@@H](CCCNC(=N)N)NC(=O)[C@@H](CN)NC(=O)[C@@H](CO)NC(=O)[C@@H](CO)NC(=O)[C@@H](CO)NC(=O)CS)C(=O)Nc1ccc(C(=O)NCCC[C@@H]2C(=O)N[C@@H](CCCNC(=N)N)C(=O)N[C@@H](Cc3ccc4ccccc4c3)C(=O)NCC(=O)N[C@H](Cc3ccc(O)cc3)C(=O)N2C)cc1 [Tc-CXCR4-6] (I: Mercaptoacetyl-[dS][dS][dS][dDap][dR][dA][4Abz] / II: cyclo([dY][dNMeOrn]R[2Nal]G); amide I:C-II:2)", "−1.54 ± 0.02 (6)"],
  ["C[C@@H](NC(=O)[C@@H](CCCNC(=N)N)NC(=O)[C@@H](CN)NC(=O)c1ccc(NN)nc1)C(=O)Nc1ccc(C(=O)NCCC[C@@H]2C(=O)N[C@@H](CCCNC(=N)N)C(=O)N[C@@H](Cc3ccc4ccccc4c3)C(=O)NCC(=O)N[C@H](Cc3ccc(O)cc3)C(=O)N2C)cc1 [Tc-CXCR4-13] (cyclo([dY][dNMeOrn]([4Abz-dA-dR-dDap-HYNIC])R[2Nal]G))", "−2.74 ± 0.03 (5)"],
  ["C[C@@H](NC(=O)[C@@H](CCCNC(=N)N)NC(=O)[C@@H](Cc1c[nH]cn1)NC(=O)[C@@H](CNC(=O)c1ccc([Si](F)(C(C)(C)C)C(C)(C)C)cc1)NC(=O)CC[C@H](C(=O)O)N1CCN(CC(=O)O)CCN(CC(=O)O)CCN(CC(=O)O)CC1)C(=O)Nc1ccc(C(=O)NCCC[C@@H]2C(=O)N[C@@H](CCCNC(=N)N)C(=O)N[C@@H](Cc3ccc4ccccc4c3)C(=O)NCC(=O)N[C@H](Cc3ccc(O)cc3)C(=O)N2C)cc1 [CXCR4-SiFA-2 [Lu]]", "0.80 ± 0.04 (8)"]
]}
